Below, each of the binders is paired with its reported koff value.
# Measurement target: T1, commercial, recombinant extracellular domain of human BAFF-R (human, UniProt Q96RJ3 1-78)
# T1 construct: extracellular domain
# Protocol text: Biacore analysis; antibody as loading sample, recombinant human BAFF-R ECD as sample

Binder: humanized C90 variant HC3 + LC1 (antibody, V domains shown, also called Humanized HC3 + LC1; Hu90 HC-3 with Hu90 LC-1) VH: EVQLQESGPGLVKPSETLSLTCSVSGDSITSGYWNWIRQPPGKGLEYIGYISYSGSTYYNPSLKSRVTISRDTSKNQYSLRLSSVTAADTALYYCASPNYPFYAMDYWGQGTRVTVSS VL: EIVLTQSPATLSLSPGERATLSCRASESVDNYGISFLNWFQQKPGQAPRLLIYAASNRATGIPARFSGSGSGTDFTLTISSLEPEDFAVYYCQQSKEVPWTFGGGTKVEIKR
Unit string: s⁻¹
koff: 0.0031
//
Binder: humanized C90 variant HC3 + LC3 (antibody, V domains shown, also called Humanized HC3 + LC3; Hu90 HC-3 with Hu90 LC-3) VH: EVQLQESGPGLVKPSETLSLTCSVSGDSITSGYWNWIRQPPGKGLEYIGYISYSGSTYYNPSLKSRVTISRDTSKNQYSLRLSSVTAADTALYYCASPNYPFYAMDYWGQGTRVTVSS VL: DIVMTQSPSSLSASVGDRVTITCRASESVDNYGISFMNWFQQKPGKAPKLLIYAASNLGSGVPSRFSGSGSGTDFTLTISSLQPEDFATYYCQQSKEVPWTFGQGTKVEIKR
Unit string: s⁻¹
koff: 0.0023
//
Binder: humanized C90 variant HC1 + LC2 (antibody, V domains shown, also called Humanized HC1 + LC2; Hu90 HC-1 with Hu90 LC-2) VH: QVQLQESGPGLVKPSQTLSLTCTVSGDSITSGYWNWIRQHPGKGLEYIGYISYSGSTYYNPSLKSRVTISRDTSKNQFSLKLSSVTAADTAVYYCASPNYPFYAMDYWGQGTLVTVSS VL: DIVLTQSPATLSLSPGERATLSCRASESVDNYGISFMNWFQQKPGQAPRLLIYAASNRATGIPARFSGSGSGTDFTLTISSLEPEDFAVYYCQQSKEVPWTFGGGTKVEIKR
Unit string: s⁻¹
koff: 0.0023
